I'd be grateful if you could share measured IC50 for these entries.
Test system: MDCK
test-description: Cytotoxicity against MDCK cells incubated for 72 hrs by MTT assay
Type: cell-based
test-parameters: Canis lupus familiaris
Give bare numbers, in µM.

[
  {
    "smiles-notation": "C[C@H](N)C(=O)O[C@H]1CC[C@]2(C)[C@H]3C(=O)C=C4[C@@H]5C[C@@](C)(C(=O)OCc6ccccc6)CC[C@]5(C)CC[C@@]4(C)[C@]3(C)CC[C@H]2C1(C)C",
    "quantity-name": "IC50",
    "number": 3.4
  }
]

Please examine the following record next.
IC50 value, target or system MDCK, for "CC(C)C[C@H](N)C(=O)N[C@H]1CC[C@]2(C)[C@H]3C(=O)C=C4[C@@H]5C[C@@](C)(C(=O)OCc6ccccc6)CC[C@]5(C)CC[C@@]4(C)[C@]3(C)CC[C@H]2C1(C)C" : 4.65

----------
Test system: MCF7
test-description: Antiproliferative activity against human MCF7 cells incubated for 72 hrs by MTT assay
Type: functional, cell-based
test-parameters: MCF7, 72 h
Hi! Could you tag entries with IC50 below 7 µM as yes, and those at or above as no? Much appreciated.

Solved entries (count: 3):
[
  {
    "molecule": "CC(C)(C)OC(=O)N[C@@H](Cc1ccccc1)C(=O)O[C@H]1CC[C@]2(C)[C@H]3C(=O)C=C4[C@@H]5C[C@@](C)(C(=O)OCc6ccccc6)CC[C@]5(C)CC[C@@]4(C)[C@]3(C)CC[C@H]2C1(C)C",
    "class-name": "no"
  },
  {
    "molecule": "CC1(C)[C@@H](NC(=O)[C@@H]2CCCN2)CC[C@]2(C)[C@H]3C(=O)C=C4[C@@H]5C[C@@](C)(C(=O)OCc6ccccc6)CC[C@]5(C)CC[C@@]4(C)[C@]3(C)CC[C@@H]12",
    "class-name": "no"
  },
  {
    "molecule": "CC1(C)[C@@H](NC(=O)[C@@H](N)Cc2ccccc2)CC[C@]2(C)[C@H]3C(=O)C=C4[C@@H]5C[C@@](C)(C(=O)OCc6ccccc6)CC[C@]5(C)CC[C@@]4(C)[C@]3(C)CC[C@@H]12",
    "class-name": "yes"
  }
]

Does "CC1(C)[C@@H](NC(=O)CN)CC[C@]2(C)[C@H]3C(=O)C=C4[C@@H]5C[C@@](C)(C(=O)OCc6ccccc6)CC[C@]5(C)CC[C@@]4(C)[C@]3(C)CC[C@@H]12" have IC50 strictly under 7 µM? yes

Does CC1(C)[C@@H](O)CC[C@]2(C)[C@H]3C(=O)C=C4[C@@H]5C[C@@](C)(C(=O)O)CC[C@]5(C)CC[C@@]4(C)[C@]3(C)CC[C@@H]12 [ENOXOLONE] have IC50 strictly under 7 µM? no

Does "C[C@H](NC(=O)OC(C)(C)C)C(=O)N[C@H]1CC[C@]2(C)[C@H]3C(=O)C=C4[C@@H]5C[C@@](C)(C(=O)OCc6ccccc6)CC[C@]5(C)CC[C@@]4(C)[C@]3(C)CC[C@H]2C1(C)C" have IC50 strictly under 7 µM? no

Does "C[C@H](N)C(=O)N[C@H]1CC[C@]2(C)[C@H]3C(=O)C=C4[C@@H]5C[C@@](C)(C(=O)OCc6ccccc6)CC[C@]5(C)CC[C@@]4(C)[C@]3(C)CC[C@H]2C1(C)C" have IC50 strictly under 7 µM? yes

Does "CC(C)C[C@H](N)C(=O)N[C@H]1CC[C@]2(C)[C@H]3C(=O)C=C4[C@@H]5C[C@@](C)(C(=O)OCc6ccccc6)CC[C@]5(C)CC[C@@]4(C)[C@]3(C)CC[C@H]2C1(C)C" have IC50 strictly under 7 µM? yes
